biological target: Hypoxia inducible factors; HIF-1-alpha, HIF-2-alpha (Homo sapiens, UniProt Q16665+Q99814); experiment: Inhibition of HIF1-mediated VEGF production in human T47D cells under hypoxic condition at 10 uM after 16 hrs by ELISA; assay type: cell-based
Activity calls are given as the source filed them. No cut-off for these calls is given here.
Hello, when you answer, please use one of the following outcomes: 1 for active, -1 for inactive

A selection of reference data follows.
[
  {
    "molecule": "C[C@@]12CCCc3coc(c31)C(=O)c1cc3c(cc12)C(=O)CCC3=O",
    "category label": -1
  },
  {
    "molecule": "C[C@@]12CCCc3coc(c31)C(=O)c1cc3c(cc12)C(=O)C1=C(NCCS1(=O)=O)C3=O",
    "category label": -1
  },
  {
    "molecule": "C[C@@]12CCCc3coc(c31)C(=O)c1cc3c(cc12)C(=O)C(CO)=CC3=O",
    "category label": 1
  },
  {
    "molecule": "C[C@@]12CCCc3coc(c31)C(=O)c1cc3c(cc12)C(=O)C=C(CO)C3=O",
    "category label": 1
  },
  {
    "molecule": "C[C@@]12CCCc3coc(c31)C(=O)c1cc3c(cc12)C(=O)C1=NCCS(=O)(=O)C1=C3O",
    "category label": -1
  }
]

Turning to the following molecule.
Enquiry: Just curious, what result did C[C@@]12CCCc3coc(c31)C(=O)c1cc3c(cc12)C(=O)C=CC3=O get here?
Return: -1
